B1: POU domain, class 2, transcription factor 1, residues 285 to 354; numbered along this chain, P14859 (parent)
chain: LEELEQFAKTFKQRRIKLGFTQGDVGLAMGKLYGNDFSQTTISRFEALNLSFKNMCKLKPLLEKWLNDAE

Variants of: B1
Experiment: abundance fitness (aPCA) (normalised: wild type 0, dead -1); higher = more abundant; growth selection in yeast, the domain comes from the species named
Conditions: Homo sapiens
I'd appreciate it if you could supply abundance fitness values for the items below.
Give bare numbers.

// worked examples, abundance fitness included
Quick one: abundance fitness for LEELEQFAKTFKQRRIKLGFTQGDVGLAMGKLYGNDFSQTTISRFEALNLSLKNMCKLKPLLEKWLNDAE [F52L] ?
-0.005

Please give the result for LEELEQFAKTFKQRRIKLGFTQGDVGLAMGKLYGNDFSQTTISRFEALNLSFKNMCKLKPLLEPWLNDAE [K64P] too.
-0.387

// same read-out, input: LEELEQFAKTFKQRRIKLGFTQGDVGLAMGKLYGNDFSQTQISRFEALNLSFKNMCKLKPLLEKWLNDAE [T41Q]
-0.028

LEELEQFAKTFKQRRIKLGFTQGDVGLAMGKLYGNDFSQTTISRFEALNLSFKNPCKLKPLLEKWLNDAE [M55P] ?
-0.991

Likewise for LTELEQFAKTFKQRRIKLGFTQGDVGLAMGKLYGNDFSQTTISRFEALNLSFKNMCKLKPLLEKWLNDAE [E2T] ?
-0.158

Now try LEELEQFAKTFKQRRIKLGFTQGDVGLAMGKLYGNDFSQTTISRFEALNLSFKNMCKDKPLLEKWLNDAE [L58D] .
-0.474

# per-item lookup of abundance fitness; items listed below
1. LEELEQFAKTFKQRRIKLGFTQGDVGLHMGKLYGNDFSQTTISRFEALNLSFKNMCKLKPLLEKWLNDAE [A28H]
2. LEELEQFAKTFKQRRIKLGFTQGDVGLAMGKLYGNDFSQTTISRFQALNLSFKNMCKLKPLLEKWLNDAE [E46Q]
3. LEELEQFAKTFKQRRIKLGFTQGDVGLAMGKLYGNDFSCTTISRFEALNLSFKNMCKLKPLLEKWLNDAE [Q39C]
4. LEELEQFAKTFKQRRIKLGFTQGDVGLAMGKLYGNDFQQTTISRFEALNLSFKNMCKLKPLLEKWLNDAE [S38Q]

1. -0.059
2. -0.851
3. -0.037
4. -0.03

# map each variant to its abundance fitness
1. LEELEQFAKTFKQRRIKLGFTQGDVGLAMGKLYGNDFSQTTISRFEALNLSFKNMCKLKPLLEKWLNHAE [D68H]
2. LEELEQFAKTFKVRRIKLGFTQGDVGLAMGKLYGNDFSQTTISRFEALNLSFKNMCKLKPLLEKWLNDAE [Q13V]
3. LEELEQFAKTFKQRRIKLGFTQGDVGDAMGKLYGNDFSQTTISRFEALNLSFKNMCKLKPLLEKWLNDAE [L27D]
4. LEELEQFAKTFKQGRIKLGFTQGDVGLAMGKLYGNDFSQTTISRFEALNLSFKNMCKLKPLLEKWLNDAE [R14G]
5. LEELEQFAKTFKQRRIKLGFTQGDVGLAMGKLYGNDFSQTTISRFEALNLSFKNMCKWKPLLEKWLNDAE [L58W]
6. LEELEQFAKTFKQRRIKLGFTQGDVGLAMGKLYGNDFSQTTISAFEALNLSFKNMCKLKPLLEKWLNDAE [R44A]
7. LEELEQFAKTFKQRRIKLGFTQGDVGLAMGKLYGNDFSQTTISRFEALNLSFKNMCKLKPLLEKWWNDAE [L66W]

-0.012
-0.014
-0.136
-0.067
0.002
0.013
-0.355

Report abundance fitness for every entry below.
1. LEELEQFAKTFKQRRIKLGFTQGDVGLAMGKLYGNDFSQTTISRFEALNLSFKNMCKLKPLPEKWLNDAE [L62P]
2. LEELEQFAKTFKQRRIKLGFTQGDVGLAMGKLYGNDFSQTTISRFEALNLSFKNMCKLKPLLEKCLNDAE [W65C]
3. LEELEQFAKTFKQRRIKLGFTQGDVGLAMGKLYGNDFSQTTISRFEALNLSFKNMCKLKPLLEKALNDAE [W65A]
4. LEELEQFAKTFKQRRIKLGFTQGDVGLAMGKLYGNDFSQTTISRFEALNLSFKNMCKLKPLLEKWLNDME [A69M]
5. LEELEQFAKTFKQRRIKLGFTQGDVGLAMGKLYGNDFSQTTISRFEALNLSFKNKCKLKPLLEKWLNDAE [M55K]
6. LEELEQFAKTFKQRRIKLGFTQGDVGLAMGKLYGNDFSQTTISRFEALNLSFKKMCKLKPLLEKWLNDAE [N54K]
7. LEGLEQFAKTFKQRRIKLGFTQGDVGLAMGKLYGNDFSQTTISRFEALNLSFKNMCKLKPLLEKWLNDAE [E3G]
8. LPELEQFAKTFKQRRIKLGFTQGDVGLAMGKLYGNDFSQTTISRFEALNLSFKNMCKLKPLLEKWLNDAE [E2P]

[-0.699, -0.35, -0.432, 0.003, -0.51, 0.009, -0.201, -0.178]
